- experimentalSystem: delta opioid receptor (Rattus norvegicus)
- experimentDescription: Rat Brain Delta Opioid Receptor Binding Assay
- studyConditions: rat forebrain membranes; [3H]DPDPE or [3H]naltrindole, 25° C., 2.5 h
pKi: −log10 of the molar value.
Kindly return true if reported pKi is no lower than 6; return false if it is lower.

                                   compound  classlabel
0  CC(=O)Nc1ccccc1-c1ccc2c(c1)Oc1ccccc1N2C1CCN(Cc2ccccn2)CC1        true
1  CC(=O)Nc1ccccc1-c1ccc2c(c1)Oc1ccccc1N2C1CCN(Cc2ccoc2)CC1       false
2  c1ccc(CN2CCC(N3c4ccccc4Sc4cc(-c5cccnc5)ccc43)CC2)nc1        true
3  CC(=O)Nc1ccccc1-c1ccc2c(c1)Oc1ccccc1N2C1CCN(Cc2ncc[nH]2)CC1        true
4  Oc1cccc2c1Oc1cc(-c3ccncc3)ccc1N2C1CCNCC1 (single isomer, unassigned)        true
5  CC(=O)Nc1ccccc1-c1ccc2c(c1)Oc1ccccc1N2C1CCN(Cc2ccccc2)CC1        true

----------
- experimentalSystem: delta opioid receptor (NG108-15 cell membranes) (Mus musculus, UniProt P32300)
- Construct: NG108-15 cell membranes were purchased from Applied Cell Sciences (Rockville, Md.)
- Sequence (P32300 whole entry): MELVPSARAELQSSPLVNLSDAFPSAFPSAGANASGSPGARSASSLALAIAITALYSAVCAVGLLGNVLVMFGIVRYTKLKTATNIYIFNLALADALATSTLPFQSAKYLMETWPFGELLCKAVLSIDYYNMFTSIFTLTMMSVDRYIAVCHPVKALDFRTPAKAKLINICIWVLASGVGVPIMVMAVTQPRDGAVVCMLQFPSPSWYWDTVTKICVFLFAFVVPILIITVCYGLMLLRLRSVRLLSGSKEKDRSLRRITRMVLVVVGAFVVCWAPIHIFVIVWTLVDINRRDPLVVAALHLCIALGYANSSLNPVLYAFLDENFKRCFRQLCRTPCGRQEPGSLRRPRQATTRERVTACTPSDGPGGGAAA
- experimentDescription: [35S]GTPγS Binding Assay in NG108-15 Cell Membranes (Delta Opioid)
pEC50: −log10 of the molar value.
Each entry below carries its recorded pEC50.
metric: pEC50

>>> print(df.to_string())
                                   compound  assayvalue
0  NC(=O)c1ccc2c(c1)Oc1ccccc1N2C1CCNCC1 [Compound 12a]        5.03
1  N#Cc1ccc2c(c1)Oc1ccccc1N2C1CCNCC1 [Compound 11a]        5.71

----------
- experimentalSystem: hMOR (CHO-hMOR cell membranes) (Homo sapiens, UniProt P35372)
- Sequence (P35372 whole entry): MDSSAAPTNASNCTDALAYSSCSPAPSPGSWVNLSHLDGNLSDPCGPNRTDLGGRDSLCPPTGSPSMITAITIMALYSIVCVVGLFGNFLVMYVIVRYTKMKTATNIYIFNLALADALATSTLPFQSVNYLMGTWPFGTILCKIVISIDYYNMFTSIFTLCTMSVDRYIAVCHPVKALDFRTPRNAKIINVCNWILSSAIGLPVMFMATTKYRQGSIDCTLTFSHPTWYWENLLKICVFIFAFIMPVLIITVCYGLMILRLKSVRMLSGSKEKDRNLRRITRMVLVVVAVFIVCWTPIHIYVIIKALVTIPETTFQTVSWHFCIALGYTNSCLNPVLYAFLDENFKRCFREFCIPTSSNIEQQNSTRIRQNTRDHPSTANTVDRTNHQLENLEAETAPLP
- experimentDescription: [35S]GTPγS Binding Assays in CHO-hMOR Cell Membranes
- studyConditions: read-out: mu GTPγS EC50
pEC50: −log10 of the molar value.
Entries and their pEC50
metric: pEC50

                                   compound                        experimentalsystem  assayvalue
0  N#Cc1ccc2c(c1)Oc1ccccc1N2C1CCNCC1 [Compound 11a]  hMOR (CHO-hMOR cell membranes) (Homo sapiens, UniProt P35372)      < 5.00
1  NC(=O)c1ccc2c(c1)Oc1ccccc1N2C1CCNCC1 [Compound 12a]  hMOR (CHO-hMOR cell membranes) (Homo sapiens, UniProt P35372)      < 5.00

----------
- experimentalSystem: delta opioid receptor (Rattus norvegicus, UniProt P33533)
- Sequence (P33533 whole entry): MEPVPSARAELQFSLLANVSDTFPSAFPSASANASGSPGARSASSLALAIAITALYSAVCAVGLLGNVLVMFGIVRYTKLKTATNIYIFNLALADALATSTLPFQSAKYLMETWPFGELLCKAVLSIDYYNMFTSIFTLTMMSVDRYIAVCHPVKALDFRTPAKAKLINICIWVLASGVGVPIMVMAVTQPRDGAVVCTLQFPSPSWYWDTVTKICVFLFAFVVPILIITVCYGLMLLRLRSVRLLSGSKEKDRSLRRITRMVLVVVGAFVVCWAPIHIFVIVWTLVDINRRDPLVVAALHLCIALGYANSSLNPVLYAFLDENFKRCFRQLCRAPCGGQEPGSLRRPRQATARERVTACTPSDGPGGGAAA
- experimentDescription: Rat Brain Delta Opioid Receptor Binding Assay
- studyConditions: rat forebrain membranes; [3H]DPDPE or [3H]naltrindole, 25° C., 2.5 h
pKi: −log10 of the molar value.
Form field: pKi (one value per entry).
metric: pKi

In [3]: df
Out[3]:
                                   compound  assayvalue
0  c1ccc(CN2CCC(N3c4ccccc4Oc4cc(-c5nnn[nH]5)ccc43)CC2)nc1 [Compound 10a]        6.64
1  O=C(c1ccc2c(c1)Oc1ccccc1N2C1CCN(Cc2ccccc2)CC1)N1CC[C@H](O)C1 [Compound 13r]        6.33
2  COc1cccc2c1Oc1cc(C(=O)N(C)C)ccc1N2C1CCN(Cc2ccccc2)CC1        6.43
3  N#Cc1ccc2c(c1)Oc1ccccc1N2C1CCNCC1 [Compound 11a]        6.36

The measurements presented in this section are drawn from patent US7432257B2.
